tested on: HBV; assay: shRNA function against HBV infection of fresh human hepatocytes (PHH cells), short-term culture (Example 3); details: shRNA alone, lentivirus day 0, HBV day 1, collected day 7
observed.property: amount of cccDNA

1) LIPG #5: lentivirus-expressed shRNA against LIPG gene, SEQ ID NO: 14, used in Examples 3 and 4 (guide CCGGTTACACGGATGCGGTCAATAACTCGAGTTATTGACCGCATCCGTGTAATTTTTG); decreased
2) DOCK11 #2: lentivirus-expressed shRNA against DOCK11 gene, SEQ ID NO: 2, used in Examples 3, 4, 6, 8, 12 (guide CCGGGTACTAGACACCATATCATTTCTCGAGAAATGATATGGTGTCTAGTACTTTTTG); dramatically decreased
3) DENND2A #2: lentivirus-expressed shRNA against DENND2A gene, SEQ ID NO: 7, used in Examples 3 and 4 (guide CCGGCCAATGAAGGAGAACCCTTATCTCGAGATAAGGGTTCTCCTTCATTGGTTTTTTG); dramatically decreased
4) HECW2 #3: lentivirus-expressed shRNA against HECW2 gene, SEQ ID NO: 17, used in Examples 3 and 4 (guide CCGGGCACAATACTTGGAGTCAATTCTCGAGAATTGACTCCAAGTATTGTGCTTTTT); decreased
